These measurements were taken from patent US20120129833A1.

# target or system: ACC2 (acetyl-CoA carboxylase 2) (Homo sapiens, UniProt O00763)
# Sequence (O00763 39-2458 limits assumed): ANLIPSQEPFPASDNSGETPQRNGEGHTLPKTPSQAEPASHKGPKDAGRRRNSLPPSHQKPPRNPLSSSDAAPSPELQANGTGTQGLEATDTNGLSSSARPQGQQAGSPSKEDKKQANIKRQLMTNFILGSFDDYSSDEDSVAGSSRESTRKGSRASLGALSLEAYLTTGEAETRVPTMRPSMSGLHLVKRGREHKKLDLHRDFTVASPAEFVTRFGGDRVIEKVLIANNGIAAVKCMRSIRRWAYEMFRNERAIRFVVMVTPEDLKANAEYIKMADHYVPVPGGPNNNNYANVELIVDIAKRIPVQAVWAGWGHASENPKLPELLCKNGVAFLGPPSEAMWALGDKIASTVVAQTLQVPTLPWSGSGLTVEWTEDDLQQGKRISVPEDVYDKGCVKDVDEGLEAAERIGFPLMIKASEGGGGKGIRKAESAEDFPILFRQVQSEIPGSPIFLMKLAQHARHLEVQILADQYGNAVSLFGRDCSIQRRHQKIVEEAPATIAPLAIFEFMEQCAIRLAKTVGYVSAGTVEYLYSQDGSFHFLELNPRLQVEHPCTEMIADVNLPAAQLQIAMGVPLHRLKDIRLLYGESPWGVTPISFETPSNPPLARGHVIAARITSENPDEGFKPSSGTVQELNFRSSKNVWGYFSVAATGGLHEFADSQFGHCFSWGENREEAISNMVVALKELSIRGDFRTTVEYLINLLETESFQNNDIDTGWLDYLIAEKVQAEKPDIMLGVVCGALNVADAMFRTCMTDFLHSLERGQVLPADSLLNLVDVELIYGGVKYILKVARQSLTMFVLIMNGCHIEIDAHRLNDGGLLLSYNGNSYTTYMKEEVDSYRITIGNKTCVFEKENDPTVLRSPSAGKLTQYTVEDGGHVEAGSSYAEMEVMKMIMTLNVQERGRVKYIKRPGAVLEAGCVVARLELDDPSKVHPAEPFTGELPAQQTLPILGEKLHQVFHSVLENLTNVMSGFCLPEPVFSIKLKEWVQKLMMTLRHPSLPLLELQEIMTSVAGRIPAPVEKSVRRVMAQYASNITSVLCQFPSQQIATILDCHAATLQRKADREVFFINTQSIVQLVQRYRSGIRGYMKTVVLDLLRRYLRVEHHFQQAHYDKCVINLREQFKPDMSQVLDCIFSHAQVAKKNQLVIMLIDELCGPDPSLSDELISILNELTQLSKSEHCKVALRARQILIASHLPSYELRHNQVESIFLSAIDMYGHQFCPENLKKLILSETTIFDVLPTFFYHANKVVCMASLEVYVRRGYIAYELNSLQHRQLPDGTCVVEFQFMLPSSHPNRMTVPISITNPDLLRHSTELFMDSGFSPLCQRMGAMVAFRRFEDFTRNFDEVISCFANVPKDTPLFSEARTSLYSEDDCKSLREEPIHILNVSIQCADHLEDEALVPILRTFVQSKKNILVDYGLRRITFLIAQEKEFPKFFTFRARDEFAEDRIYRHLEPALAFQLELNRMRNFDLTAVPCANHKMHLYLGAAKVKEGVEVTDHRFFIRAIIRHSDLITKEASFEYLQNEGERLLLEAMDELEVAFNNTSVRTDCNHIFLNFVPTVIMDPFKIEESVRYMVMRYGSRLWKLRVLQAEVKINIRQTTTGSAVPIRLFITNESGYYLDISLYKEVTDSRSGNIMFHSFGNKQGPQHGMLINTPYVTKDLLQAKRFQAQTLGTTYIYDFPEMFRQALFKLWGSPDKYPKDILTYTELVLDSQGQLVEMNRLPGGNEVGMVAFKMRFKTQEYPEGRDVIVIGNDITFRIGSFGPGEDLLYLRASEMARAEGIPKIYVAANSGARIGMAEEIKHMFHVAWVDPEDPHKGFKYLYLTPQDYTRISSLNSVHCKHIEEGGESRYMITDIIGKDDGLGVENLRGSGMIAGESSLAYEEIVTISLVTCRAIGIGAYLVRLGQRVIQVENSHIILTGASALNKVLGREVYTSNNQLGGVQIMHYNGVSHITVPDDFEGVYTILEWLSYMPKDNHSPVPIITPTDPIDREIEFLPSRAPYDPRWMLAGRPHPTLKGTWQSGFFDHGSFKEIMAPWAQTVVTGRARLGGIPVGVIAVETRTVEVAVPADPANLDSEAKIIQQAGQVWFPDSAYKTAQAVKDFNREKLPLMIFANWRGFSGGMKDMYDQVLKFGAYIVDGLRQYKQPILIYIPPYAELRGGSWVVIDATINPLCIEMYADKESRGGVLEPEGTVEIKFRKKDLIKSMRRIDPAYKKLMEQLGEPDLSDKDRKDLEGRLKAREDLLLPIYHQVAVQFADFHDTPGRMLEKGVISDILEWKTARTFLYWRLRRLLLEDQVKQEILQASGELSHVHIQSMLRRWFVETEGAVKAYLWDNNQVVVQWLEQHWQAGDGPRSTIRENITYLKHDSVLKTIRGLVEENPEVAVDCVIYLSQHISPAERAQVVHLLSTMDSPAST
recorded endpoint: IC50 (nM)

>  <molecule>
Cc1ccc(-c2ccc(Cl)cc2)cc1C1=C(O)C2(CCC3(CC2)OCC(C)O3)NC1=O (stereo not shown) [Example 1-63]

>  <target or system>
ACC2 (acetyl-CoA carboxylase 2) (Homo sapiens, UniProt O00763)

>  <recorded endpoint>
IC50

>  <result value>
4220

$$$$
>  <molecule>
COC1CCC2(CC1)NC(=O)C(c1c(C)cc(C)c(-c3ccc(Cl)cc3)c1C)=C2O (stereo not shown) [Example 1-9]

>  <target or system>
ACC2 (acetyl-CoA carboxylase 2) (Homo sapiens, UniProt O00763)

>  <recorded endpoint>
IC50

>  <result value>
626

$$$$
>  <molecule>
COCCC1CCC2(CC1)NC(=O)C(c1c(C)ccc(-c3ccc(Cl)cc3)c1C)=C2O (stereo not shown) [Example 1-57]

>  <target or system>
ACC2 (acetyl-CoA carboxylase 2) (Homo sapiens, UniProt O00763)

>  <recorded endpoint>
IC50

>  <result value>
220

$$$$
>  <molecule>
CO[C@H]1CC[C@]2(CC1)NC(=O)C(c1c(C)ccc(-c3ccc(F)cc3)c1C)=C2O [Example 1-45]

>  <target or system>
ACC2 (acetyl-CoA carboxylase 2) (Homo sapiens, UniProt O00763)

>  <recorded endpoint>
IC50

>  <result value>
3610

$$$$

----------
# target or system: ACC2 (acetyl-CoA carboxylase 2) (Homo sapiens, UniProt O00763)
For each record, check the reported IC50: if it is below 10 µM write 1 (yes), else write 0 (no).

>  <compound>
COCC1(C)NC(=O)C(c2cc(-c3ccc(Cl)cc3)ccc2C)=C1O (centres unmarked) [Example 1-46]

>  <assigned class>
0 (no)

$$$$
>  <compound>
Cc1ccc(-c2ccc(Cl)cc2)cc1C1=C(O)C(C)(C)OC1=O [Example 2-3]

>  <assigned class>
0 (no)

$$$$
>  <compound>
Cc1ccc(-c2ccc(Cl)cc2)cc1C1=C(O)C2(CCOCC2)NC1=O [Example 1-6]

>  <assigned class>
1 (yes)

$$$$
>  <compound>
CCCC1CCC2(CC1)OC(=O)C(c1cc(-c3ccc(Cl)cc3)ccc1C)=C2O (centres unmarked) [Example 2-36]

>  <assigned class>
1 (yes)

$$$$
>  <compound>
O=C1NC2(CCC3(CC2)OCCCO3)C(O)=C1c1cc(-c2ccc(Cl)cc2)ccc1Cl [Example 1-58]

>  <assigned class>
0 (no)

$$$$
>  <compound>
Cc1cc(C)c(-c2ccc(Cl)cc2)cc1C1=C(O)[C@]2(CC[C@@]3(CCCO3)CC2)OC1=O [Example 2-30]

>  <assigned class>
1 (yes)

$$$$
>  <compound>
Cc1ccc(-c2ccc(Cl)cc2)cc1C1=C(O)CC(C)(C)CC1=O [Example 7-5]

>  <assigned class>
0 (no)

$$$$
>  <compound>
CCc1cc(C)cc(Br)c1C1=C(O)C2(CCCCC2)OC1=O [Example C-4, reference compound]

>  <assigned class>
0 (no)

$$$$

----------
Record set of IC50 for target or system ACC2 (acetyl-CoA carboxylase 2) (Homo sapiens, UniProt O00763).

>  <compound>
COC1CCC2(C1)NC(=O)C(c1c(C)ccc(-c3ccc(Cl)cc3)c1C)=C2O (stereo not drawn)

>  <unit tag>
µM

>  <lt gt eq>
=

>  <IC50>
8.6

$$$$
>  <compound>
Cc1ccc(-c2ccc(Cl)cc2)cc1C1=C(O)C2(CCCC(C)C2)NC1=O (stereo not drawn)

>  <unit tag>
µM

>  <lt gt eq>
=

>  <IC50>
0.433

$$$$
>  <compound>
CCOC1CCC2(CC1)NC(=O)C(c1cc(-c3cccc(Cl)c3)ccc1C)=C2O (stereo not drawn)

>  <unit tag>
µM

>  <lt gt eq>
>

>  <IC50>
20

$$$$
>  <compound>
COC1CCC2(CC1)OC(=O)C(c1c(C)ccc(-c3ccc(Cl)cc3)c1C)=C2O (stereo not drawn)

>  <unit tag>
µM

>  <lt gt eq>
=

>  <IC50>
1.27

$$$$
>  <compound>
CCOC1CCC2(CC1)NC(=O)C(c1cc(-c3ccc(Cl)cc3)ccc1C)=C2O (stereo not drawn)

>  <unit tag>
µM

>  <lt gt eq>
=

>  <IC50>
0.192

$$$$
>  <compound>
Cc1ccc(-c2ccc(Cl)cc2)cc1C1C(=O)N2CC(C)(F)CN2C1=O

>  <unit tag>
µM

>  <lt gt eq>
>

>  <IC50>
20

$$$$
>  <compound>
Cc1ccc(-c2ccc(Cl)cc2)c(C)c1C1=C(O)[C@]2(CC[C@]3(CCCO3)CC2)OC1=O

>  <unit tag>
µM

>  <lt gt eq>
=

>  <IC50>
4.8

$$$$
>  <compound>
COC1CCCC2(C1)OC(=O)C(c1cc(-c3ccc(Cl)cc3)ccc1Cl)=C2O (stereo not drawn)

>  <unit tag>
µM

>  <lt gt eq>
>

>  <IC50>
20

$$$$
>  <compound>
O=C1NC2(CCOCC2)C(O)=C1c1cc(-c2cc(F)c(F)c(F)c2)ccc1Cl

>  <unit tag>
µM

>  <lt gt eq>
>

>  <IC50>
20

$$$$
>  <compound>
Cc1ccc(-c2ccc(F)cc2)c(C)c1C1=C(O)C2(CCC(OCC(F)(F)F)CC2)NC1=O (stereo not drawn)

>  <unit tag>
µM

>  <lt gt eq>
=

>  <IC50>
5.96

$$$$
>  <compound>
Cc1ccc(-c2ccc(F)c(Cl)c2)cc1C1=C(O)C2(CCCC2)OC1=O

>  <unit tag>
µM

>  <lt gt eq>
>

>  <IC50>
20

$$$$
>  <compound>
CO[C@H]1CC[C@]2(CC1)NC(=O)C(c1cc(-c3ccc(F)cc3)ccc1Cl)=C2O

>  <unit tag>
µM

>  <lt gt eq>
>

>  <IC50>
20

$$$$
>  <compound>
COC1CCC2(CC1)NC(=O)C(c1c(C)cc(-c3ccc(Cl)cc3)cc1C)=C2O (stereo not drawn) [Example C-2, reference compound]

>  <unit tag>
µM

>  <lt gt eq>
>

>  <IC50>
20

$$$$
>  <compound>
Cc1ccc(-c2ccc(F)cc2)cc1C1=C(O)C2(CCC(OCC(F)(F)F)CC2)NC1=O (stereo not drawn)

>  <unit tag>
µM

>  <lt gt eq>
=

>  <IC50>
14

$$$$
>  <compound>
O=C1C(c2cc(-c3ccc(Cl)cc3)ccc2Cl)C(=O)N2CCCCN12

>  <unit tag>
µM

>  <lt gt eq>
>

>  <IC50>
20

$$$$
>  <compound>
COC1CCC2(CC1)OC(=O)C(c1cc(-c3ccccc3Cl)ccc1C)=C2O (stereo not drawn)

>  <unit tag>
µM

>  <lt gt eq>
>

>  <IC50>
20

$$$$
>  <compound>
Cc1ccc(-c2ccc(Cl)cc2)cc1-c1c(O)c2ccc(Cl)cc2[nH]c1=O

>  <unit tag>
µM

>  <lt gt eq>
=

>  <IC50>
4.12

$$$$
>  <compound>
Cc1cc(C)c(-c2ccc(Cl)cc2)c(C)c1C1=C(O)C2(CCCCC2)CC1=O

>  <unit tag>
µM

>  <lt gt eq>
=

>  <IC50>
0.387

$$$$
>  <compound>
Cc1ccc(-c2ccc(Cl)cc2)cc1C1=C(O)CC2(CCCCC2)CC1=O

>  <unit tag>
µM

>  <lt gt eq>
>

>  <IC50>
20

$$$$
>  <compound>
Cc1ccc(-c2ccc(Cl)cc2)cc1C1C(=O)N(C)OC(C)(C)C1=O (stereo not drawn)

>  <unit tag>
µM

>  <lt gt eq>
>

>  <IC50>
20

$$$$
>  <compound>
Cc1ccc(-c2ccc(Cl)cc2)cc1C1=C(O)CC(C)CC1=O (stereo not drawn)

>  <unit tag>
µM

>  <lt gt eq>
>

>  <IC50>
20

$$$$
>  <compound>
COCC1CCC2(CC1)OC(=O)C(c1cc(-c3ccc(Cl)cc3)ccc1Cl)=C2O (stereo not drawn)

>  <unit tag>
µM

>  <lt gt eq>
=

>  <IC50>
3.34

$$$$
>  <compound>
Cc1cc(C)c(-c2ccc(Cl)cc2)c(C)c1C1=C(O)C2(CCCCCC2)OC1=O

>  <unit tag>
µM

>  <lt gt eq>
=

>  <IC50>
0.204

$$$$
>  <compound>
COCC1CCC2(CC1)NC(=O)C(c1cc(-c3ccc(Cl)cc3)ccc1Cl)=C2O (stereo not drawn)

>  <unit tag>
µM

>  <lt gt eq>
=

>  <IC50>
1.1

$$$$
>  <compound>
Cc1ccc(-c2ccc(Cl)cc2)cc1C1=C(O)CN(C)C1=O

>  <unit tag>
µM

>  <lt gt eq>
>

>  <IC50>
20

$$$$
>  <compound>
Cc1ccc(-c2ccc(Cl)cc2)c(C)c1C1=C(O)C2(CCOCC2)NC1=O

>  <unit tag>
µM

>  <lt gt eq>
=

>  <IC50>
8.8

$$$$
>  <compound>
Cc1cc(C)c(-c2ccc(Cl)cc2)cc1C1=C(O)C2(CCSCC2)OC1=O

>  <unit tag>
µM

>  <lt gt eq>
=

>  <IC50>
1.02

$$$$
>  <compound>
COCC1CCCC2(C1)NC(=O)C(c1cc(-c3ccc(Cl)cc3)ccc1Cl)=C2O (stereo not drawn)

>  <unit tag>
µM

>  <lt gt eq>
>

>  <IC50>
20

$$$$
>  <compound>
Cc1ccc(-c2ccc(F)cc2)c(C)c1C1C(=O)N2CCOCCN2C1=O

>  <unit tag>
µM

>  <lt gt eq>
>

>  <IC50>
20

$$$$
>  <compound>
Cc1ccc(-c2ccc(Cl)cc2)cc1C1=C(O)C2(CCC3(CCCO3)CC2)OC1=O (stereo not drawn)

>  <unit tag>
µM

>  <lt gt eq>
=

>  <IC50>
0.789

$$$$
>  <compound>
Cc1ccc(-c2ccc(F)c(F)c2)cc1C1=C(O)C2(CCCC2)OC1=O

>  <unit tag>
µM

>  <lt gt eq>
>

>  <IC50>
20

$$$$
>  <compound>
Cc1cc(C)c(-c2ccc(Cl)cc2)c(C)c1C1=C(O)[C@]2(CC[C@@]3(CCCO3)CC2)OC1=O

>  <unit tag>
µM

>  <lt gt eq>
=

>  <IC50>
0.048

$$$$
>  <compound>
CC[C@]1(OC)CC[C@@]2(CC1)NC(=O)C(c1c(C)ccc(-c3ccc(F)cc3)c1C)=C2O

>  <unit tag>
µM

>  <lt gt eq>
>

>  <IC50>
20

$$$$
